FYI, the data here is from ChEMBL document CHEMBL3301361.

- PROCEDURE_TEXT: in vitro
- ASSAY_CONDITIONS: human, liver microsomes
MEASURED_PROPERTY: microsomal CLint

Take a look at these entries with their results.
1. O=C(CSc1nc2c(c(=O)n1-c1ccccc1)SCC2)Nc1ncc(-c2ccccc2)s1 :: > 150 µL/min/mg
2. COc1ccc(Cl)cc1C(=O)NCCc1ccc(S(=O)(=O)NC(=O)NC2CCCCC2)cc1 [GLYBURIDE] :: 22 µL/min/mg
3. NC(=O)c1ccc(N(C(N)=O)c2c(F)cccc2F)nc1-c1ccc(F)cc1F :: 5.13 µL/min/mg
4. CC(=O)Nc1cccc2c1c(S(=O)(=O)c1ccc(Cl)cc1)c(C)n2CC(=O)O :: < 3 µL/min/mg
5. N=C(N)c1cc2c(I)cccc2s1 :: 4 µL/min/mg
6. Cc1ccc2c(c1)c(S(=O)(=O)c1ccc(Cl)cc1)c(C)n2CC(=O)O :: 7 µL/min/mg

Parameter requested: microsomal CLint. Apply to each item below.
1. C[C@H](CO)Nc1nc(SCc2ccccc2)nc2[nH]c(=O)[nH]c12
2. N#Cc1cc(F)c(Cl)cc1O[C@H](CCN)c1ccccc1
3. COc1ccc(S(=O)(=O)NC(=O)N2CCC(N3CCC(Oc4ccc(Cl)c(Cl)c4)CC3)CC2)cc1
4. C[C@H]1CN(Cc2cc(Cl)ccc2CCC(=O)O)CCN1C(=O)Cc1ccccc1
5. Cc1c(Sc2ccc(Cl)cc2)c2c(-c3ccccc3)cccc2n1CC(=O)O
6. CN(CCCOCCOCCc1ccccc1)CCc1ccc(O)c2nc(O)sc12

Solution:
["< 3 µL/min/mg", "< 3 µL/min/mg", "< 3 µL/min/mg", "< 3 µL/min/mg", "< 3 µL/min/mg", "35 µL/min/mg"]

Parameter requested: microsomal CLint. Apply to each item below.
1. CCc1nc2ccc(C(=O)NCc3ccc4c(c3)OCO4)cn2c1N(C)Cc1cccs1
2. Cc1ccc2c(c1)c(-c1cc(C)nc3ccccc13)c(C)n2CC(=O)O

Solution:
["> 150 µL/min/mg", "< 3 µL/min/mg"]

----------
- PROCEDURE_TEXT: in vitro
- ASSAY_CONDITIONS: SD, HW or BN, rat, plasma
Class membership depends on fraction unbound at 5 h alone; the intervals are low (below 0.01), intermediate (0.01 to below 0.1), high (0.1 or more)

Would you please look over these solved cases?
1) CC1=C(CC(=O)NCc2ccc(C(=N)N)cc2)C(=O)N(NS(=O)(=O)c2c(C)cccc2Cl)CC1 :: high
2) Cc1ccc(S(=O)(=O)Nc2ccc3nc(C)sc3c2)cc1 :: low
3) O=S(=O)(Nc1ncns1)c1cc(F)c(Oc2ccc(Cl)cc2-c2cn[nH]c2)cc1F :: low

Now turn to the next compound.
Exercise: Kindly state the category for this compound: O=C(O)c1c(O)c(Cc2ccc(Cl)cc2)nc2c3c(ccc12)CCCC3 [PSI-697]
Solution: low

----------
I'd be grateful if you could share measured logD for these entries.
- PROCEDURE_TEXT: physchem
- ASSAY_CONDITIONS: octan-1-ol/water, pH 7.4, LogD7.4

Take a look at these entries with their results.
1. Nc1ccc2ncnc(Nc3ccc(F)c(Cl)c3)c2c1 :: 2.64
2. COc1cc2c(Nc3ccc(Cl)cc3F)ncnc2cc1OCCn1cncn1 :: 3.2
3. FC(F)(F)c1nnc2ccc(N3CCCC3)nn12 :: 2.41

Parameter requested: logD. Apply to each item below.
1. CC[C@H](NC(=O)c1c([S+](C)[O-])c(-c2ccc(F)cc2)nc2ccccc12)c1ccccc1 (stereo not given in full)
2. O=C(O)Cc1csc(-c2ccc(Cl)cc2)n1 [FENCLOZIC ACID]

Solution:
[3.72, -0.22]
